system: THRa:RXRa (NR concentration 90 nM, RXRa partner concentration 90 nM); test: PBM binding z-score (relative to random genomic background probes); higher = stronger binding; sequences stand for … in GC…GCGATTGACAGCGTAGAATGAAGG
Kindly return y if reported PBM binding z-score is no lower than 3; return n if it is lower.

Past entries and their recorded results:
GCTATTAGTTGAAAGGGCATCCGAATGATTCTCG :: n
GCTAGCAGGCCTTTTGGGTCACTCAATGACGGGC :: n
CCAGACAGCTGAGAAGGTAACTCAGCCTCGATTA :: n
TCTTGTAGATCAACAGGAGGTTAAGACAGATCGA :: n
CGAACTAGGTAATTGACAGGACAGTGAATAGTAA :: n

Data request: Please check the record `TGAATGAGGTTAAAGATCAGGGGACGTGGCGTCG` and state if its PBM binding z-score is at or above 3.
Data returned: n

Data request: // same read-out, input: `GCGACTGGGGCATCAGCAGGTGACCATAACTTAA`
Data returned: n

Data request: Request: `CCTACTGGGCCATCTGGTCATTGATATCAACGTT`
Data returned: n

Data request: Try the sequence `AGTCAAGGTTCACTAGGTAACGTAAGATTCAGCT`
Data returned: n

Data request: Let us now turn to `CGTCCAAGGTCATAGCAGGTCAGTGAAGACAGAT`
Data returned: y

Data request: For `TCATATAGGTAAATGCAAGGTGAAAGTCCGATCT` then?
Data returned: n

Data request: Now this one: `ACAGACAGGTGATTAAGGTAACTCAGGCTATCAT`
Data returned: n

Data request: Request: `TATACAGGGTCAAAGGCCAGATTACGAATGTCGA`
Data returned: y

Data request: Try this sequence next: `GGAACGAGGGCATTCGAGTTAATAGCATGGCGAT`
Data returned: y

Data request: Also need `CCTACTGGGACAAAGGTCATTGATTCCAATGCTC` , thanks.
Data returned: y

Data request: Consider next the sequence `TCAGACAGGTGAAGGTAACTAAGGTACGCAGTCG` in the same way.
Data returned: n

Data request: Further, for `TCATATAGGTAAATGCTATGTGAAAGTCCGATCT` ?
Data returned: n

Data request: Moving on to the next sequence: `GCTAATTGGTCAGTAAAAGGTCACACACCGGTCG`
Data returned: y

Data request: How about this sequence: `CGTCCAAGGTCAGAGAAGTCAGTGAATGCCGAGT`
Data returned: y

Data request: Consider next the sequence `CCTAGCAGGCCAGGCTCACTCAAGCATTTCGCTT` in the same way.
Data returned: n

Data request: Moving on to the next sequence: `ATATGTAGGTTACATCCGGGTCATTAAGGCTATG`
Data returned: y

Data request: Moving on to `GCAGACACGTGAAACGCAGGTAACTCAGGGTGGC`
Data returned: n

Data request: Then what about the sequence `TCTTGTAGATCAACAGGAGGTTAAGCAAGATCGA` ?
Data returned: n

Data request: Try `CCTGCTAGATCATGGTCAGCTAATCTACAGTATG` next.
Data returned: n

Data request: Also need `CAAACTAGGTCAAAGGTCAAAGTGGAGCCAACCA` , thanks.
Data returned: y

Data request: Next sequence up: `TCTTGTAGAACAGCAGGTTAAGAAAGCTGGCCAA`
Data returned: n

Sourced from the supplement of paper PMC6555819
